Measured values drawn from patent KR20130140557A for this set.

# systemName: T1, IL-6R-Fc 항원 (IL-6R full domain 단백질) (human, UniProt P08887 20-365)
# T1 construct: domain: IL-6R full domain; Expressed transiently in HEK293E and purified from the supernatant; also called IL-6R 항원; not shown: Fc part from expression vector pYK 604
# T1 sequence (looked up): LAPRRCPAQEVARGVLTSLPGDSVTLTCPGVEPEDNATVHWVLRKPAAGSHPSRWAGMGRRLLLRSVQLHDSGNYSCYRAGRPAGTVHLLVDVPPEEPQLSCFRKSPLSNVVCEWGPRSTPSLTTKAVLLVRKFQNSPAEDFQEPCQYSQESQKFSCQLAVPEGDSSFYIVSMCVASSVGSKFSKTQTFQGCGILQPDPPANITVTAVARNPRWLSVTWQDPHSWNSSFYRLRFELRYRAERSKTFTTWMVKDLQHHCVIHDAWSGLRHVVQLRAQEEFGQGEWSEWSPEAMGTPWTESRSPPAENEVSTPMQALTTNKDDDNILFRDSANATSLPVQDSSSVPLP
# assayDetails: ELISA, coated IL-6R 100 ng/well, anti-Fab-HRP
Each item that follows carries a reported OD 490 nm at 12.5 nM antibody.
Lab book: enter the figure in OD490, no units written.

Please review the entries below; each comes with its answer.
{"binder": "항 IL-6R 단클론 항체 A7 (IgG) (antibody, V domains shown, Phage clone converted to whole IgG) VH: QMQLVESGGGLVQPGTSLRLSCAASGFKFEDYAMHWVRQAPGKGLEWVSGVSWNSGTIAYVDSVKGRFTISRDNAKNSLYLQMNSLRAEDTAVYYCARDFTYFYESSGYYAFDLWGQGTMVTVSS VL: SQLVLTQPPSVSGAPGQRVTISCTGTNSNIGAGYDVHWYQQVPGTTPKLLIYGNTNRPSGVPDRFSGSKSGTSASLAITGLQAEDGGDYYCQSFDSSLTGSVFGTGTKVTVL", "OD 490 nm at 12.5 nM antibody [OD490]": 2.58}
{"binder": "항 IL-6R 단클론 항체 F2 (IgG) (antibody, V domains shown, Phage clone converted to whole IgG) VH: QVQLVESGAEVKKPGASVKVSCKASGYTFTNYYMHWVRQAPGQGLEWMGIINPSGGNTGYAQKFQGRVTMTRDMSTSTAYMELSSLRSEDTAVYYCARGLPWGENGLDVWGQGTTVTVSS VL: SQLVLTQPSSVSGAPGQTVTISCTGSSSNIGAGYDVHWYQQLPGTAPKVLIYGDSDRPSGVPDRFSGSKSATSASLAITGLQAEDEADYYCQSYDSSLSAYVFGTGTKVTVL", "OD 490 nm at 12.5 nM antibody [OD490]": 2.92}
{"binder": "항 IL-6R 단클론 항체 B10 (IgG) (antibody, V domains shown, Phage clone converted to whole IgG) VH: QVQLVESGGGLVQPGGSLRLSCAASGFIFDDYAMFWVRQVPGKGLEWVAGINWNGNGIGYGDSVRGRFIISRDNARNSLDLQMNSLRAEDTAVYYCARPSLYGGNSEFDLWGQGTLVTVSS VL: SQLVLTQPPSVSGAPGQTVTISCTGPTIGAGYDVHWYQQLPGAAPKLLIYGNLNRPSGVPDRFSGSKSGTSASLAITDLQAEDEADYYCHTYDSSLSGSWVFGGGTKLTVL", "OD 490 nm at 12.5 nM antibody [OD490]": 1.39}

Now take the following binder into account.
Q. Give OD 490 nm at 12.5 nM antibody for the following binder: 항 IL-6R 단클론 항체 D2 (IgG) (antibody, V domains shown, Phage clone converted to whole IgG) VH: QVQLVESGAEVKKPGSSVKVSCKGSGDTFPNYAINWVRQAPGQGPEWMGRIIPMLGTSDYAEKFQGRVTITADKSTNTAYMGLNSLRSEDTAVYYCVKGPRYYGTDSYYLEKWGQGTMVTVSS VL: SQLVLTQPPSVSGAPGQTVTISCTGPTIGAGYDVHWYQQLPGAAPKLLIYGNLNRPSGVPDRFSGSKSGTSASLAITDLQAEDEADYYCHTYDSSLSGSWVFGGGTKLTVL
A. 1.47
